Tested on: hIL-6 mRNA
Assay: Quantification of hIL-6 mRNA
Type: cell-based, human
Design: key: Active: an active compound is one that causes a ≥20% inhibition in IL-6 mRNA at a concentration less than or equal to 10 μM
Details: IL-6 mRNA by real-time PCR; differentiated U937 cells, 1 h pretreatment, lipopolysaccharide stimulation 3 h; concentration ≤10 μM
quantity-measured: Inhibition of IL-6 expression

COc1cc(OC)c2c(=O)[nH]c(-c3ccc(C4CCNCC4)cc3)nc2c1
Active
COc1cc(OC)c2c(=O)[nH]c(-c3ccc(N4CCC(NC(C)C)CC4)cc3)nc2c1
Active
COc1cc(OC)c2c(=O)[nH]c(-c3ccc(N4CCC(NC(=O)N(C)C)CC4)cc3)nc2c1
Active
COc1cc(OC)c2c(=O)[nH]c(-c3ccc(N4CCC(NC(=O)c5ccccc5)CC4)cc3)nc2c1
Active

Switching to the query record.
Briefly, Inhibition of IL-6 expression measured for Cc1cc(-c2nc3cc(F)cc(F)c3c(=O)[nH]2)cc(C)c1OCCN1CCCC1 : Active

---

quantity-measured: melting point

COc1cc(OC)c2c(=O)[nH]c(-c3ccc(OCCN4CCCC4)cc3)nc2c1
226 to 227 °C
COc1cc(OC)c2c(=O)[nH]c(-c3cc(C)c(OCCN4CCCC4)c(C)c3)nc2n1
228 to 230 °C
COc1cc(OC)c2c(=O)[nH]c(-c3cc(C)c(OCCN4C(=O)CN(C(C)C)C4=O)c(C)c3)nc2c1
219 to 221 °C
Cc1cc(-c2nc3ccc(CN4CCN(C)CC4)cc3c(=O)[nH]2)cc(C)n1
229 to 230 °C
COc1cc(OC)c2c(=O)[nH]c(-c3cc(C)nc(C)c3)nc2c1
291 to 292 °C

Briefly, melting point measured for COCCOc1cc(OCCN2CCCC2)c2c(=O)[nH]c(-c3cc(C)nc(C)c3)nc2c1 : 60.4 to 62.3 °C

Briefly, melting point measured for COc1cc(OCCN2CCCC2)c2c(=O)[nH]c(-c3cc(C)nc(C)c3)nc2c1 : 190 to 191 °C

Briefly, melting point measured for COc1cc(OC)c2c(=O)[nH]c(-c3ccc(OCCN4CCCC4)c(C)c3)nc2c1 : 230 to 231 °C

Briefly, melting point measured for COc1cc(OC)c2c(=O)[nH]c(-c3cc(C)c(OCCN4CC(NC(C)=O)C4)c(C)c3)nc2c1 : 111.8 to 113.6 °C

Briefly, melting point measured for COc1cc(OCCN2CCCC2)cc2nc(-c3cc(C)nc(C)c3)[nH]c(=O)c12 : 227 to 229 °C

Briefly, melting point measured for COc1cc(OCCNC(C)=O)cc(-c2nc3cc(OC)cc(OC)c3c(=O)[nH]2)c1 : 264 to 265 °C

Briefly, melting point measured for COc1cc(OC)c2c(=O)[nH]c(-c3cc(C)c(OCCN4CCC4)c(C)c3)nc2c1 : 204 to 205 °C

Briefly, melting point measured for COc1cc(OC)c2c(=O)[nH]c(-c3ccc(CN4C(=O)CNC4=O)cc3)nc2c1 : 317 to 318 °C

Briefly, melting point measured for COc1cc(OC)c2c(=O)[nH]c(-c3cc(C)c(OCCn4ccnc4)c(C)c3)nc2c1 : 218 to 219 °C

Briefly, melting point measured for Cc1cc(-c2nc3ccc(CCN4CCCC4)cc3c(=O)[nH]2)cc(C)n1 : 212.3 to 213.2 °C

Briefly, melting point measured for Cc1cc(-c2nc3c(Cl)cccc3c(=O)[nH]2)cc(C)c1OCCN1CCCC1 : 216 to 217 °C

Briefly, melting point measured for COc1cc(OC)c2c(=O)[nH]c(-c3cc(C)cc(OCCO)c3)nc2c1 : 106.9 to 109.1 °C

Briefly, melting point measured for COc1ccc2c(=O)[nH]c(-c3cc(C)c(OCCN4CCCC4)c(C)c3)nc2c1 : 218 to 220 °C

Briefly, melting point measured for Cc1cc(C)c2c(=O)[nH]c(-c3cc(C)c(OCCN4CCCC4)c(C)c3)nc2c1 : 181 to 182 °C

---

Reported melting point is given for each of the following compounds.

Below are worked cases with known answers.
COc1cc(OC)c2c(=O)[nH]c(-c3ccc(N4CCC(O)CC4)cc3)nc2n1
284 to 286 °C
Cc1cc(-c2nc3cc(OCCOC(C)C)cc(OCCOC(C)C)c3c(=O)[nH]2)cc(C)n1
124 to 125 °C
COc1cc(OC)cc(-c2nc3ccc(Nc4ccncc4)cc3c(=O)[nH]2)c1
289 to 290 °C
Cc1cc(-c2nc3cc(Cl)cc(Cl)c3c(=O)[nH]2)cc(C)c1OCCN1CCCC1
209 to 210 °C
COCCOc1cc(OC)c2c(=O)[nH]c(-c3ccnc(C)c3)nc2c1
260 to 262 °C
COc1cc(OC)c2c(=O)[nH]c(-c3cc(C)c(OCCN4CCN(C)CC4)c(C)c3)nc2c1
180 to 182 °C
COc1cc(OC)c2c(=O)[nH]c(-c3cc(C)c(OCCN4CCN(C(C)=O)CC4)c(C)c3)nc2c1
213 to 214 °C
COc1cc(OC)c2c(=O)[nH]c(-c3cccc(OCCO)c3)nc2c1
244.8 to 246 °C
COCCOc1cc(OCCOC)c2c(=O)[nH]c(-c3cc(C)nc(C)c3)nc2c1
149.8 to 151.4 °C

Briefly, melting point measured for COc1cccc2c(=O)[nH]c(-c3cc(C)c(OCCN4CCCC4)c(C)c3)nc12 : 231 to 232 °C

---

System: hIL-6 mRNA
Experiment: Quantification of hIL-6 mRNA
Format: cell-based, human
Design: key: Active: an active compound is one that causes a ≥20% inhibition in IL-6 mRNA at a concentration less than or equal to 10 μM
Details: IL-6 mRNA by real-time PCR; differentiated U937 cells, 1 h pretreatment, lipopolysaccharide stimulation 3 h; concentration ≤10 μM
quantity-measured: Inhibition of IL-6 expression

Below are worked cases with known answers.
Cc1cc(C)c2c(=O)[nH]c(-c3cc(C)c(OCCN4CCCC4)c(C)c3)nc2c1
Active
COc1cc(OC)c2c(=O)[nH]c(-c3ccc(N4CCN(C(=O)c5ccncc5)CC4)cc3)nc2c1
Active
COc1cc(OC)c2c(=O)[nH]c(-c3ccc(N4C[C@@H](C)N(C(C)=O)[C@@H](C)C4)cc3)nc2c1
Active
Cc1cc(-c2nc3cc(OC(C)C)cc(OC(C)C)c3c(=O)[nH]2)cc(C)c1OCCN1CCCC1
Active
COc1cc(OC)c2c(=O)[nH]c(-c3cc(C)c(OCCN4C(=O)CN(C(C)C)C4=O)c(C)c3)nc2c1
Active
O=c1[nH]c(-c2ccc(N3CCN(CC(F)(F)F)CC3)cc2)nc2ccccc12
Active
COc1cc(OCCOc2ccccc2)c2c(=O)[nH]c(-c3cc(C)nc(C)c3)nc2c1
Active
COc1cc(OC)c2c(=O)[nH]c(-c3ccc(N4CCN(C(C)C)CC4)cc3)nc2c1
Active

Briefly, Inhibition of IL-6 expression measured for COc1cc(OC)c2c(=O)[nH]c(-c3ccc(NS(C)(=O)=O)cc3)nc2c1 : Active

Briefly, Inhibition of IL-6 expression measured for COc1cc(OC)c2c(=O)[nH]c(-c3ccc(N4CCC(NC(C)=O)C4)cc3)nc2c1 (stereo not shown) : Active

Briefly, Inhibition of IL-6 expression measured for Cc1cc(-c2nc3cc(Cl)cc(Cl)c3c(=O)[nH]2)cc(C)c1OCCN1CCCC1 : Active

Briefly, Inhibition of IL-6 expression measured for COc1cc(OC)c2c(=O)[nH]c(-c3ccc(N4CCCN(C)CC4)cc3)nc2c1 : Active

---

Tested on: hIL-6 mRNA
Test: Quantification of hIL-6 mRNA
Format: cell-based, human
Design: key: Active: an active compound is one that causes a ≥20% inhibition in IL-6 mRNA at a concentration less than or equal to 10 μM
Conditions: IL-6 mRNA by real-time PCR; differentiated U937 cells, 1 h pretreatment, lipopolysaccharide stimulation 3 h; concentration ≤10 μM
Excerpt: In this example, […] in tissue culture cells was quantitated to measure the transcriptional inhibition of hIL-6 when treated with a compound of the invention. […] The eluted mRNA isolated was then used in a one-step quantitative real-time PCR reaction, using components of the Ultra Sense Kit together with Applied Biosystems primer-probe mixes. […]
quantity-measured: Inhibition of IL-6 expression

COc1cc(OC)c2c(=O)[nH]c(-c3ccc(OC4CCN(C(C)=O)CC4)cc3)nc2c1
Active
COc1cc(OC)c2c(=O)[nH]c(-c3ccc(N4CCC(NC(C)=O)CC4)cc3)nc2c1
Active
COc1cc(OC)c2c(=O)[nH]c(-c3cc(C)c(OCCN4C(=O)NC(c5ccccc5)C4=O)c(C)c3)nc2c1 (stereo not shown)
Active
CCN1CCN(Cc2ccc(-c3nc4cc(OC)cc(OC)c4c(=O)[nH]3)cc2)CC1
Active
